system: ASK1; construct: gene MAP3K5; conditions: concentration: 1 μM, replicates: in singlicate; n = 1;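 also: KINOMEscan kinase panel screen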
Parameter Measured: %Inh (%)
Numeric answer only, unit % assumed.

Input line: Endpoint output: %Inh of COc1ccc(NC(=O)c2ccc(-c3cc(-c4nnc(C)o4)ccc3C)cc2)cc1 . Value?
Output line: 10

Input line: %Inh for CCC(CC)(CC)n1cnc2c(N)ncnc21 ?
Output line: 2

Input line: Can you look up the measured %Inh of Clc1ccc(-c2cc(-c3c[nH]nc3-c3ccccn3)ccn2)cc1 for me?
Output line: 0

Input line: Form field: reported %Inh of COc1cc2c(Nc3cccc(NC(=O)c4ccccc4)c3)ncnc2cc1OCCCN1CCOCC1
Output line: 0

Input line: What value of %Inh has been reported for the following molecule? Clc1cccc(-c2nc(Nc3ccncc3)c3ccccc3n2)c1
Output line: 13

* * *

test system: GRK3; construct: gene ADRBK2; conditions: concentration: 1 μM, replicates: in singlicate; n = 1
Parameter Measured: %Inh (%)
Reply numerically in %, unit not repeated.

Input line: # lookup: %Inh of O=C(c1ccc(-c2cc(-c3c[nH]nc3-c3ccccn3)ccn2)cc1)N1CCCC1
Output line: 0

Input line: Any idea what its %Inh is? The molecule is COc1ccc(-c2oc3ncnc(N)c3c2-c2ccc(OC)cc2)cc1
Output line: 70

Input line: Look up %Inh for this molecule: CCc1nc(-c2cccc(N(C)S(=O)(=O)c3ccccc3)c2)c(-c2ccnc(Nc3ccc(N4CCN(C(C)=O)CC4)nc3)n2)s1
Output line: 0

Input line: %Inh lookup needed for O=c1cc(N2CCOCC2)nc2n(Cc3cccc(Cl)c3)ccn12 , thanks.
Output line: 12

* * *

test system: YANK3; construct: gene STK32C; settings: concentration: 1 μM, replicates: in singlicate; n = 1
Parameter Measured: %Inh (%)
The figure you give is taken to be in %; do not add the unit.

Input line: Requested read-out %Inh, target or system YANK3, entry O=C(NCCCN1CCCC1=O)c1cnc(NCc2cc(Cl)ccc2Cl)nc1NC1CCNCC1
Output line: 0

Input line: Give recorded %Inh with YANK3 for the following compound: Cc1cc(N2CCC(NS(=O)(=O)c3ccc(F)cc3)CC2)nc(Nc2cccc(C#N)c2)n1.O=C(O)C(F)(F)F [GSK1653537]
Output line: 29

Input line: Record lookup: for YANK3, what %Inh belongs to Cc1cccc(-c2nc(Nc3ccc4[nH]nnc4c3)c3ccccc3n2)n1 [GW867587] ?
Output line: 1

Input line: API: value(readout= %Inh, system= YANK3, query= COc1ccc(NC(=O)c2ccc(-c3cc(-c4nnc(C)o4)ccc3C)cc2)cc1 [GW595885] )
Output line: 0

Input line: Request: %Inh, test system YANK3, entry c1ccc(-c2ccc3c(-c4ccnc(Nc5ccc6c(c5)OCCO6)n4)cnn3n2)cc1 [GW818941]
Output line: 0

Input line: Query the reported %Inh for YANK3; item: COc1ccc(Nc2nccc(N3CCC(NC(=O)Nc4ccc5c(c4)OCO5)C3)n2)cc1 (centres unmarked) [GSK1379745]
Output line: 16

Input line: API: value(readout=%Inh, system=YANK3) for record Cl.Cn1ccc(-c2cccc(Nc3ccnc4cc(-c5nccs5)ccc34)c2)n1 [GW525701]
Output line: 0

Input line: Form: Entry = COc1ccc(NC(=O)Nc2ccc(C)c(-c3ccc(C(=O)Nc4ccncc4)cc3)c2)cc1 [GSK1398475] | System = YANK3 | %Inh = ____
Output line: 7

* * *

test system: PRKG2; conditions: concentration: 1 μM, replicates: in singlicate; n = 1
Parameter Measured: %Inh

Input line: Notebook: pull reported %Inh for PRKG2, entry COC(=O)c1cccc(NC(=O)NCCNc2ccnc(Nc3ccc(F)cc3)n2)c1
Output line: 0%

Input line: Return %Inh measured with PRKG2 given this molecule: Nc1nc(-c2ccc3c(N)n[nH]c3c2)cc(N2CCCCC2)n1
Output line: 8%

Input line: Kindly state the measured %Inh obtained for CNc1nccc(-c2c(-c3ccc(F)cc3)ncn2C2CCN(C)CC2)n1 with PRKG2.
Output line: 0%

Input line: Missing value: %Inh, PRKG2, entry O=C(Nc1ccccc1F)NC1CCN(c2ccnc(Nc3ccc(F)cc3)n2)C1 (stereo not drawn) . Fill in?
Output line: 0%

Input line: Report %Inh for CS(=O)(=O)CCNCc1nc(-c2ccc3ncnc(Nc4ccc(OCc5cccc(F)c5)c(Cl)c4)c3c2)cs1.Cl tested on PRKG2.
Output line: 0%

Input line: Please tell me: %Inh of Cn1ccc2ncnc(Nc3ccc(Oc4cccc(Cl)c4)c(Cl)c3)c21 , system PRKG2?
Output line: 0%

Input line: Record lookup: for PRKG2, what %Inh belongs to COc1ccc(-c2oc3ncnc(N)c3c2-c2ccc(OC)cc2)cc1 ?
Output line: 0%

Input line: Lab note: need %Inh for CCC(CC)(CC)n1cnc2c(N)ncnc21 on PRKG2, anyone have it?
Output line: 3%

Input line: I'm curious: which %Inh was measured for O=C(Nc1n[nH]c2nc(-c3ccco3)c(Br)cc12)c1ccc(CN2CCCC2)cc1.O=C(O)[C@H](O)[C@@H](O)C(=O)O tested on PRKG2?
Output line: 0%

* * *

Exercise: for every item that follows, state its recorded %Inh.
tested on: MAPKAPK2; settings: concentration: 1 μM, replicates: in singlicate; n = 1
Give a bare numeral; the unit % is implied.

Input line: State the recorded %Inh for this entry: COc1ccc(Nc2nccc(N3CCC(NC(=O)Nc4ccc5c(c4)OCO5)C3)n2)cc1 (stereo not shown)
Output line: 17

Input line: %Inh lookup needed for COC(=O)c1c(-c2ccccc2)c2cc(Cl)ccc2c(=O)n1Cc1ccc(S(C)(=O)=O)cc1 , thanks.
Output line: 24

Input line: What value of %Inh has been reported for the following molecule? Fc1ccc(Nc2nccc(-c3c(-c4ccc(Cl)cc4)nn4ncccc34)n2)cc1F
Output line: 3

Input line: What measured %Inh goes with CC(C)N1CCC(n2cnc(-c3ccc(F)cc3)c2-c2ccnc(N)n2)CC1 ?
Output line: 1

* * *

system: MST2; construct: gene STK3; conditions: concentration: 1 μM, replicates: in singlicate; n = 1
Parameter Measured: %Inh (%)
Give the value, in units of %, as a plain number.

Input line: // map Nc1nc(-c2ccc3c(N)n[nH]c3c2)cc(N2CCCCC2)n1 to recorded %Inh (system: MST2)
Output line: 0

Input line: Give %Inh (MST2) of the following compound: CCCc1ccc(S(=O)(=O)NC2CCN(c3ccnc(Nc4ccc(OC)cc4)n3)C2)cc1 (stereo not drawn)
Output line: 0

Input line: Lab note: need %Inh for Cl.c1ccc(Cn2ccc3cc(Nc4ncnc5ccccc45)ccc32)cc1 on MST2, anyone have it?
Output line: 22

Input line: Requested read-out %Inh, target or system MST2, entry Clc1cccc(-c2nc(Nc3ccncc3)c3ccccc3n2)c1
Output line: 45

Input line: %Inh of COc1ccc(NC(=O)c2ccc(-c3cc(-c4nnc(C)o4)ccc3C)cc2)cc1 on MST2?
Output line: 0

Input line: Form: Entry = Fc1cccc(COc2ccc(Nc3ncnc4nn5ccccc5c34)cc2Cl)c1 | System = MST2 | %Inh = ____
Output line: 0

Input line: What %Inh appears in the records for this compound with MST2? COC(=O)c1c(-c2ccccc2)c2cc(Cl)ccc2c(=O)n1Cc1ccc(S(C)(=O)=O)cc1
Output line: 18

Input line: GET /values?readout=%Inh&system=MST2&item= COc1ccc(Nc2nccc(N3CCC(NC(=O)Nc4ccc5c(c4)OCO5)C3)n2)cc1 (stereo not drawn)
Output line: 0

Input line: Missing value: %Inh, MST2, entry COc1ccc(-c2oc3ncnc(N)c3c2-c2ccc(OC)cc2)cc1 . Fill in?
Output line: 0

Input line: Recorded %Inh for COc1ccc(NC(=O)Nc2ccc(C)c(-c3ccc(C(=O)Nc4ccncc4)cc3)c2)cc1 with MST2, please?
Output line: 0

Input line: For MST2, provide %Inh of COc1cc2ncnc(Nc3ccc(OCc4ccccc4Br)c(Cl)c3)c2cc1OC.Cl please.
Output line: 0

Input line: Param readout = %Inh; param system = MST2; param query = Fc1cccc(COc2ccc(Nc3ncnc4cc[nH]c34)cc2Cl)c1 ; response: value
Output line: 19

Input line: Requested read-out %Inh, target or system MST2, entry Nc1nccc2scc(-c3ccc4c(c3)CCN4C(=O)Cc3cc(F)ccc3F)c12
Output line: 3

Input line: # get_value(readout= %Inh, system= MST2) for Cn1ccc2ncnc(Nc3ccc(Oc4cccc(Cl)c4)c(Cl)c3)c21
Output line: 25

Input line: Query the reported %Inh for MST2; item: O=c1cc(N2CCOCC2)nc2n(Cc3cccc(Cl)c3)ccn12
Output line: 11

Input line: Could you share what %Inh was measured for CCC(CC)(CC)n1cnc2c(N)ncnc21 , tested on MST2?
Output line: 7

Input line: Write down the reported %Inh of Cc1ccc(C)c(NC(=O)NCCNc2ccnc(Nc3ccc(F)cc3)n2)c1 , test system: MST2.
Output line: 0

Input line: Request: %Inh, test system MST2, entry O=C(NCCCN1CCCC1=O)c1cnc(NCc2cc(Cl)ccc2Cl)nc1NC1CCNCC1
Output line: 0

Input line: Query for MST2: what %Inh does the record show for Cn1cc(-c2ccc3c(c2)CCN3C(=O)Cc2cccc(C(F)(F)F)c2)c2c(N)ncnc21 ?
Output line: 0

Input line: Missing value: %Inh, MST2, entry OCCOCCn1ccc2ncnc(Nc3ccc(Oc4cccc(Cl)c4)c(Cl)c3)c21 . Fill in?
Output line: 0

Input line: Can you look up %Inh on MST2 for O=C(Nc1ccccc1)Nc1ccc(Oc2ccc3nccn3n2)cc1 ?
Output line: 0

Input line: Give the reported %Inh for CCc1nc(-c2cccc(C)c2)c(-c2ccnc(NC(=O)c3ccccc3)c2)s1 (system: MST2).
Output line: 12

Input line: Request: %Inh, test system MST2, entry CS(=O)(=O)CCNCc1ccc(-c2ccc3ncnc(Nc4ccc(OCc5ccccc5)c(Cl)c4)c3c2)o1.Cl
Output line: 0

Input line: API: value(readout= %Inh, system= MST2, query= CC(C)(C)OC(=O)NC1CCCN(c2cc(-c3ccc4c(N)n[nH]c4c3)nc(N)n2)C1 (stereo not drawn) )
Output line: 0

Input line: // map CSc1ccc(NC2=C(c3ccccc3Cl)C(=O)NC2=O)cc1 to recorded %Inh (system: MST2)
Output line: 0

Input line: Record lookup: for MST2, what %Inh belongs to CS(=O)(=O)CCNCc1nc(-c2ccc3ncnc(Nc4ccc(OCc5cccc(F)c5)c(Cl)c4)c3c2)cs1.Cl ?
Output line: 8

Input line: Can you look up %Inh on MST2 for Fc1ccc(-c2ncn(CCCNCc3ccccc3)c2-c2ccncc2)cc1 ?
Output line: 39

Input line: Record CC(=O)Nc1n[nH]c2ncc(-c3ccccc3)cc12 : what is its %Inh with MST2?
Output line: 1

Input line: Please tell me: %Inh of O=C(c1ccc(-c2cc(-c3c[nH]nc3-c3ccccn3)ccn2)cc1)N1CCCC1 , system MST2?
Output line: 0

Input line: Can you look up %Inh on MST2 for Cc1ccc(O)cc1Nc1cc(C(F)(F)F)nc2ccc(-c3ccncc3)cc12 ?
Output line: 44

Input line: // fetch MST2 %Inh for c1ccc(-c2ccc3c(-c4ccnc(Nc5ccc6c(c5)OCCO6)n4)cnn3n2)cc1
Output line: 4

Input line: Enter reported %Inh observed with MST2 for CC(C)(C)c1ccc(-n2cnc3c(N)ncnc32)cc1
Output line: 18

Input line: Which %Inh is reported with MST2 for this entry: FC(F)(F)c1ccc(-c2nn3ncccc3c2-c2ccnc(Nc3cccc(C(F)(F)F)c3)n2)cc1 ?
Output line: 21

Input line: Query for MST2: what %Inh does the record show for CNc1nccc(-c2c(-c3ccc(F)cc3)ncn2CCCN2CCOCC2)n1 ?
Output line: 14

Input line: Item: Cl.Fc1ccccc1COc1ccc(Nc2ncnc3ccc(-c4nnc(C(F)(F)F)o4)cc23)cc1Cl Test system: MST2 Read-out: %Inh Value: ?
Output line: 0

Input line: Short answer please: %Inh, MST2, entry NC(=O)c1sc(-n2cnc3ccccc32)cc1OCc1ccccc1F
Output line: 0
